Test: Thermodynamic solubility of compound in distilled water measured for 24 hrs by HPLC analysis
Format: physicochemical
Conditions: read-out: Therm_solubility
attributeMeasured: solubility thermodynamic at 24 h

Record CC1=C(C(=O)Nc2ccc(-c3nc4ccccc4c(=O)n3C)cc2)C(c2ccc(Cl)cc2Cl)NC(=O)N1 (stereo unspecified) . Reported solubility thermodynamic at 24 h: 0.36 µg/mL

====

Molecular target: Solute carrier family 2, facilitated glucose transporter member 4 (Rattus norvegicus) (UniProt P19357)
Sequence (whole entry): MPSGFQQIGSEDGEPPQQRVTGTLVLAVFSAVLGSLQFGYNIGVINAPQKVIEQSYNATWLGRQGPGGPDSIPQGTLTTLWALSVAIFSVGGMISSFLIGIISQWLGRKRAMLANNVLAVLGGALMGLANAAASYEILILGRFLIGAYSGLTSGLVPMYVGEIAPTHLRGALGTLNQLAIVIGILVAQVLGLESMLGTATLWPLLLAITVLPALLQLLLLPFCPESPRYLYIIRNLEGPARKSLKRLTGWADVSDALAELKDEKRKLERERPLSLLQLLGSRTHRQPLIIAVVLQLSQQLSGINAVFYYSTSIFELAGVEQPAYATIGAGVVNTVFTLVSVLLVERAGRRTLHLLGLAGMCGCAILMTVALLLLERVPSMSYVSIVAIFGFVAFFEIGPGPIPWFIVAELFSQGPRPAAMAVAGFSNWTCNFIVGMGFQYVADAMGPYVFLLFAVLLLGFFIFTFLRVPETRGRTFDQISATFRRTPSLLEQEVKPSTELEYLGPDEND
Test: Induction of GLUT4 translocation in rat L6-GLUT4myc skeletal muscle cells assessed as translocation to cell surface by measuring fold stimulation at 10 uM measured after 16 hrs by antibody-coupled colorimetric assay
Format: cell-based
Details: filed as activator
For each of the molecules below, state its fold change (FC).
Numbers only.

Some entries whose results are on file:
CCn1c(-c2ccc(NC(=O)C3=C(C)NC(=O)NC3c3ccc(Cl)cc3)cc2)nc2ccccc2c1=O (stereo not given) ... 1.7
CC1=C(C(=O)Nc2ccc(-c3nc4ccccc4c(=O)n3C)cc2)C(c2ccc(C#N)cc2)NC(=O)N1 (stereo not given) ... 1.1
CC1=C(C(=O)Nc2ccc(-c3nc4ccccc4c(=O)n3C)cc2)C(c2scnc2C)NC(=O)N1 (stereo not given) ... 1.05
CC1=C(C(=O)Nc2ccc(-c3nc4ccccc4c(=O)n3C)cc2)C(c2ccc([N+](=O)[O-])cc2)NC(=O)N1 (stereo not given) ... 1.21

# input for lookup
Record CC1=C(C(=O)Nc2cccc(-c3nc4ccccc4c(=O)n3C)c2)C(c2ccco2)NC(=O)N1 (stereo not given) . Reported fold change (FC): 1.1

====

Assay: Thermodynamic solubility of compound in tris buffer at pH 7.4 measured for 24 hrs by HPLC analysis
Type: physicochemical
Conditions: read-out: Therm_solubility
attributeMeasured: solubility thermodynamic at 24 h

Record CC1=C(C(=O)Nc2ccc(-c3nc4ccccc4c(=O)n3C)cc2)C(c2ccc(Cl)cc2Cl)NC(=O)N1 (stereo unspecified) . Reported solubility thermodynamic at 24 h: 0.25 µg/mL

====

Target: Solute carrier family 2, facilitated glucose transporter member 4 (Rattus norvegicus) (UniProt P19357)
Assay: Induction of GLUT4 translocation in rat L6-GLUT4myc skeletal muscle cells assessed as translocation to cell surface by measuring fold stimulation at 10 uM measured after 16 hrs by antibody-coupled colorimetric assay
Assay type: cell-based
Details: filed as activator
attributeMeasured: fold change (FC)
Give bare numbers.

Some entries whose results are on file:
CCn1c(-c2ccc(NC(=O)C3=C(C)NC(=O)NC3c3ccsc3)cc2)nc2ccccc2c1=O (centres undefined) ... 1.29
CC1=C(C(=O)Nc2ccc(-c3nc4ccccc4c(=O)n3C)cc2)C(c2ccc(N(C)C)cc2)NC(=O)N1 (centres undefined) ... 1.08
CC(=O)CC(=O)Nc1ccc(-c2nc3ccccc3c(=O)n2C)cc1 ... 1.24

Kindly give each listed record's fold change (FC).
1. CC1=C(C(=O)Nc2ccc(-c3nc4ccccc4c(=O)n3C)cc2)C(c2ccc(F)cc2)NC(=O)N1 (centres undefined)
2. CC1=C(C(=O)Nc2ccc(-c3nc4ccccc4c(=O)n3C)cc2)C(c2ccc(Cl)cc2)NC(=O)N1 (centres undefined)

[1.27, 1.7]
